# method: CHI Log D procedure
# Assay type: physicochemical
# measurement conditions: pH 7.4
experimental endpoint: CHI Log D
Write the value as a bare number.

| compound | CHI Log D |
| --- | --- |
| CC(=O)N[C@@H](Cc1ccccc1)C(=O)N[C@@H](CC(=O)O)C(=O)N[C@@H](C)C(=O)N[C@]1(C)CN(C)C(=O)OCC=CCCCCCC[C@@](C)(C(=O)N[C@@H](Cc2ccccc2)C(=O)N[C@@H](Cc2c[nH]c3ccccc23)C(=O)N[C@@H](CCC(N)=O)C(N)=O)NC(=O)[C@H](C(C)C)NC(=O)[C@H](Cc2ccccc2)NC(=O)[C@H](C)NC(=O)[C@H](C)NC(=O)[C@H](CC(=O)O)NC(=O)[C@H](CC(=O)O)NC1=O (single isomer, unassigned) [I-44] | 1.312 |
| CC(=O)N1CCC[C@]12CC=CCCCC1(CCCC=CCCCCCC[C@@](C)(C(=O)N[C@@H](CCc3ccccc3)C(=O)N[C@@H](Cc3csc4ccccc34)C(=O)N[C@@H](CCC(N)=O)C(N)=O)NC(=O)[C@H](CC(N)=O)NC(=O)[C@H](Cc3ccccc3)NC(=O)[C@H](C)NC(=O)[C@H](C)NC(=O)[C@H](CCC(=O)O)NC(=O)[C@H](CC(=O)O)NC1=O)NC(=O)[C@H](C)NC(=O)[C@H](CC(=O)O)NC2=O (some centres unmarked) [I-443] | 2.128 |
| CC[C@H](C)[C@@H]1NC(=O)[C@H](CC(=O)O)NC(=O)[C@]2(CC=CCCCC3(CCCC=CCCCCCC[C@@](C)(C(=O)N[C@@H](Cc4ccccc4)C(=O)N[C@@H](Cc4csc5ccccc45)C(=O)N[C@@H](CCC(N)=O)C(N)=O)NC(=O)[C@H](CC(N)=O)NC(=O)[C@H](Cc4ccccc4)NC(=O)[C@H](C)NC(=O)[C@H](C)NC(=O)[C@H](CC(=O)O)NC(=O)[C@H](CC(=O)O)NC3=O)NC1=O)CCCN2C(C)=O (some centres unmarked) [I-468] | 2.292 |

Q: // CHI Log D lookup, key: CC(=O)N1CCC[C@]12CC=CCCCC1(CCCC=CCCCOC(=O)N3CC[C@@](C(=O)N[C@@H](Cc4ccsc4)C(=O)N[C@@H](Cc4csc5ccccc45)C(=O)N[C@@H](CO)C(N)=O)(C3)NC(=O)[C@H](CC(C)C)NC(=O)[C@H](Cc3ccccc3)NC(=O)[C@H](C)NC(=O)[C@H](C)NC(=O)[C@H](Cc3cccc(C(=O)O)c3)NC(=O)[C@H](CC(=O)O)NC1=O)NC(=O)[C@H](CC(C)(C)C)NC(=O)[C@H](CC(=O)O)NC2=O (some centres unmarked) [I-987]
Result: 2.115

Q: // CHI Log D lookup, key: CC[C@H](C)[C@@H]1NC(=O)[C@H](CC(=O)O)NC(=O)[C@]2(CC=CCCCC3(CCCC=CCCCCCC[C@@](C)(C(=O)N[C@@H](Cc4ccccc4)C(=O)N[C@@H](Cc4csc5ccccc45)C(=O)N[C@H](C(N)=O)C(C)C)NC(=O)[C@H](CCC(N)=O)NC(=O)[C@H](Cc4ccccc4)NC(=O)[C@H](C)NC(=O)[C@H](C)NC(=O)[C@H](CCC(=O)O)NC(=O)[C@H](CC(=O)O)NC3=O)NC1=O)CCCN2C(C)=O (some centres unmarked) [I-646]
Result: 2.694
